Biological target: Dual specificity tyrosine-phosphorylation-regulated kinase 1A (Rattus norvegicus)
Test: Inhibition of rat DYRK1A kinase domain (1 to 499 residues) expressed in bacteria assessed as residual activity at 10 uM using KKISGRLSPIMTEQ as substrate in presence of [gamma-33P]ATP relative to control
Each entry falls in a class defined on Activity; the bands are range 1: < 6%; range 2: ≥ 6% and < 30%; range 3: ≥ 30%

Please review the following examples before continuing.
CN(C)CCNc1ncc2cc3cnccc3c(N)c2n1 = range 3
Nc1c2ccncc2cc2cnc(NCCCN3CCCCC3)nc12 = range 1
Nc1c2ccncc2cc2cnc(-c3ccccc3)nc12 = range 3
Nc1c2ccncc2cc2cnc(NCCN3CCCCC3)nc12 = range 2
CN1CCN(CCCNc2ncc3cc4cnccc4c([N+](=O)[O-])c3n2)CC1 = range 1

Prompt: Determine which band this compound sits in: `CN(C)CCCNc1ncc2cc3cnccc3c([N+](=O)[O-])c2n1`
Completion: range 3

Prompt: Using the reported Activity, which band applies to `O=[N+]([O-])c1c2ccncc2cc2cnc(NCCN3CCCC3)nc12` ?
Completion: range 2

Prompt: // return the class label for `CN1CCN(CCNc2ncc3cc4cnccc4c(N)c3n2)CC1`
Completion: range 1
